# Tested on: M19-MEL
# ASSAY NAME: NCI tumour cell line growth inhibition, 48 h
Calls of active or inactive are those of the source. No stated cut-off is given here; in the data, active = GI50 up to about 1.1 µM and inactive = higher.
Bench note: report the call from True for active, False for inactive

COc1ccc(C(N)=O)c(OC)c1OCc1ccccc1    False
Cc1cc(C)c(-c2noc(-c3ccc(Cl)cc3)c2C2=NCCN2)c(C)c1    False
O=C(c1ccccc1)c1nc2ccc(Cl)cc2cc1C(Br)Br    True

API: the following record is the query input.
Given CN(C)c1cccc(OC(=O)NCCCl)c1 , state the outcome it received in this test.
False

====

# System: HT-29
# ASSAY NAME: NCI tumour cell line growth inhibition, 48 h
The source made the active and inactive calls. Rule as the data show it: active = GI50 up to about 1.1 µM and inactive = higher.
EXPERIMENTAL READOUT: GI50

Worked examples, 6 compounds total:
Cc1cccc(C)c1NC(=O)C1=NC(=S)NC(c2ccccc2)C1c1nc2ccccc2s1 (centres undefined)    > 100 µM (inactive)
CC1OC(OC2C[C@](O)(C(=O)CBr)Cc3c(O)c4c(c(O)c32)C(=O)c2ccccc2C4=O)C(F)C(O)C1O (some centres undefined)    12.1 µM (inactive)
CC/C(C)=C1\CCC(CN2CCOCC2)C1=O (centres undefined)    15.6 µM (inactive)
CCCCCCCCCCCCCCCCCc1cccc(OCOCCOC)c1C(=O)O    17.1 µM (inactive)
COC(C)(C)[C@@H](O)[C@H]1C[C@H](C)[C@@]2(CC[C@]3(C)[C@@H]2CC[C@@H]2[C@@]4(C)CC[C@@H](OC(C)=O)C(C)(C)[C@@H]4C[C@@H](OC4OC(COC(C)=O)C(O)C(O)C4O)[C@]23C)O1 (some centres undefined)    1.89 µM (inactive)
[N-]=[N+]=NCC(=O)c1cnc(O)nc1O    > 100 µM (inactive)

Item: [N-]=[N+]=CC(=O)C1CCCN1C(=O)c1ccccc1 (centres undefined) | System: HT-29 | GI50: > 10 µM (inactive)

Short answer on HT-29 for COC(=O)C1C2CC3C(OC(=O)C31)C2OC(=O)[C@](OC)(c1ccccc1)C(F)(F)F (some centres undefined) , GI50: > 100 µM (inactive)

Test item CC(=O)O[C@H]1[C@H](O[C@H]2CC[C@]34C[C@]35CC[C@]3(C)[C@@H]([C@@]6(C)CC[C@@H](C(C)(C)O)O6)[C@@H](O)C[C@@]3(C)[C@@H]5C[C@H](O[C@@H]3O[C@H](CO)[C@@H](O)[C@H](O)[C@H]3O)[C@H]4C2(C)C)OC[C@@H](O)[C@@H]1O ; HT-29; reported GI50 was 85.5 µM (inactive)

====

# Tested on: MDA-MB-435
# ASSAY NAME: NCI tumour cell line growth inhibition, 48 h
Activity calls are given as the source filed them. Rule as the data show it: active = GI50 up to about 1.1 µM and inactive = higher.
Can you answer with just one of these options? active, inactive

Record excerpt, results attached:
CC(=O)C(=C(c1ccccc1)c1ccccc1)c1ccccc1    inactive
CC(=O)NNC(=S)N/C=C1/C(=O)Oc2ccccc2C1=O    inactive
O=c1[nH]c(=O)n(COCc2ccccc2)cc1Nc1ccc(Br)cc1    inactive
COC(=O)c1ccc(C)cc1C1CN=NC12Cc1cc(C)c(C)cc1C2=O (configuration not stated)    inactive
C=CCOC(=O)CCCCCCCCCCCCCCCOC(=O)C1=C(CCC[C@@H](C)O[Si](C)(C)C(C)(C)C)NC(=O)N2[C@H](CC3(CC/C=C\[C@H](CC)O[Si](C(C)C)(C(C)C)C(C)C)OCCO3)CC[C@H]12    inactive
C/C(=N\NC(N)=S)c1ccc2c(c1)Sc1ccccc1O2    active
Oc1cccc(-c2cn3cc(Cl)ccc3n2)c1    inactive
CCNCCCCNCCCCNCCCCNCCCCNCC    inactive

Recorded call for NNC1=NC(=O)NC(=O)C1 ?
inactive

Can you look up the reported call for O=C(O)COc1c(Cl)cc(Cl)c(C(c2c(Cl)cc(Cl)c(OCC(=O)O)c2Cl)C(Cl)(Cl)Cl)c1Cl for me?
inactive

Name the outcome recorded for FC(F)(Sc1ncccn1)c1nc2ccccc2o1 in the assay.
inactive

====

# System: OVCAR-4
# ASSAY NAME: NCI tumour cell line growth inhibition, 48 h
Activity calls are given as the source filed them. No stated cut-off is given here; in the data, active = GI50 up to about 1.1 µM and inactive = higher.
# GI50 values compiled below

Recorded GI50, per entry:
CCOC(=O)C(Sc1ccccc1)c1c(OC)cc(=O)oc1/C=[N+](/[O-])c1ccc(N(C)C)cc1 (centres undefined)    26.7 µM (inactive)
CN(CCc1ccc(Br)cc1)CCN1CCCCC1    54.8 µM (inactive)

The value of GI50 measured for the compound O=C(CSc1nc2ccc(I)cc2c(=O)n1Cc1ccccc1)N/N=C/c1ccccc1 turned out to be 34.2 µM (inactive)

Form: compound = N#Cc1nc2ccccc2nc1N1CCN(c2ccc([N+](=O)[O-])cc2)CC1 ; GI50 = > 100 µM (inactive)

Given item COc1ccc(N2C(=O)C3c4[nH]c5ccc([N+](=O)[O-])cc5c4C4CCC(C(C)(C)C)CC4C3C2=O)cc1 (centres undefined) , the value recorded as its GI50 is 14.8 µM (inactive)

Summary for this compound, CCOC(=O)c1cc(Sc2ccc(N)c(C(=O)OCC)c2)ccc1N : GI50 is 17.8 µM (inactive)

compound CC(=O)OCC1OC(OC2CC3C(C)(C)C(=O)CC[C@]3(C)C3CC[C@]45C[C@]4(CCC5[C@@H](C)CC(O)C(O)C(C)(C)O)[C@]23C)C(O)C(O)C1O (some centres undefined) , GI50 observed: 12.7 µM (inactive)

The compound listed as COc1cc(O)c2c(=O)c(OC)c(-c3ccc(OC)c(O)c3)oc2c1 [AYANIN] has a reported GI50 of 22.1 µM (inactive)

So for [N-]=[N+]=NCC(=O)c1cnc(O)nc1O , the logged GI50 turned out to be > 100 µM (inactive)

====

# System: RXF 393
# ASSAY NAME: NCI tumour cell line growth inhibition, 48 h
The source made the active and inactive calls. No stated cut-off is given here; in the data, active = GI50 up to about 1.1 µM and inactive = higher.
Just give me one of these, please: y = active, n = inactive

CCCC1C(=O)C(CC)Cc2c(OC)ccc(OC)c21 (stereo not drawn)    n
COc1ccc(/N=C2\C(=N/c3ccc(OC)cc3)N(S(=O)(=O)c3ccccc3)C(=S)N2c2ccccc2)cc1    n
CCCCCCCCCCCCCCCCCCOCC(O)COP(=O)(O)OCC1OC(n2cc(F)c(=O)[nH]c2=O)CC1O (stereo not drawn)    n

# evaluate next
Dear all, I need the recorded test outcome for O=C(Nc1ccccc1-c1nn(CN2CCNCC2)c(=S)n(CN2CCNCC2)c1=O)C(F)(F)F , thank you.
n

====

# System: UACC-257
# ASSAY NAME: NCI tumour cell line growth inhibition, 48 h
Activity calls are given as the source filed them. Rule as the data show it: active = GI50 up to about 1.1 µM and inactive = higher.
Documented GI50 across a set of compounds

C/C=C/CC(S(=O)(=O)c1ccccc1)S(=O)(=O)c1ccccc1    > 100 µM (inactive)
CN(C)c1cccc(OC(=O)NCCCl)c1    > 100 µM (inactive)
CC1=C(C(=O)Nc2ccccc2)C(c2ccccc2Cl)C(C(=O)Nc2ccccc2)=C(C)N1    19.4 µM (inactive)

response.value for COC(=O)N/N=C(\C)c1sc(-c2nc(C)c(/C(C)=N/NC(=O)OC)s2)nc1C (field: GI50) = > 100 µM (inactive)

Sample C#CCNC(=O)NCCCCC(NC(C)=O)C(=O)NCc1ccccc1 (stereo not given) ; GI50 observed: > 100 µM (inactive)

Sample C=C1C(=O)C2(C)OC2(C)C1C(=O)O (stereo not given) ; GI50 observed: > 100 µM (inactive)

Item: O=C1/C(=C/c2ccccc2)CCc2ccc(Cl)nc21 | GI50: 5.4 µM (inactive)

The reported GI50 of the compound CCCCCCCCCCCCCCCCCc1cccc(OCOCCOC)c1C(=O)O was 20.5 µM (inactive)

Just so you know, measured GI50 for CN(C)CCNC(=O)c1cccc2c(NC(CS)C(=O)O)c3ccccc3nc12 (stereo not given) came out at 10.1 µM (inactive)

// CC(C)(C)c1cc(C(=O)/C=C/c2cc[nH]n2)cc(C(C)(C)C)c1O : GI50 value = 3.24 µM (inactive)

====

# Test system: MDA-MB-435
# ASSAY NAME: NCI tumour cell line growth inhibition, 48 h
The source made the active and inactive calls. Cut-off read from the data, not from the text of the source: active = GI50 up to about 1.1 µM and inactive = higher.
Please answer using one outcome listed in active, inactive

CCOC(=O)/C=C(\C(=O)OCC)n1ccc(=O)[nH]c1=O    inactive

Hello, I am checking results. What call was entered for Cc1occc1C(=S)Nc1ccc(Cl)c(C(=O)OC(C(C)C)C(C)C)c1 ?
inactive

Assay outcome for N#Cc1c(/C=C/c2ccccc2)c2c([nH]c1=S)CCCCC2 : what was it?
inactive

What was the test verdict on CC(=O)NC1=C(Sc2ccc(Cl)cc2)C(=O)c2ccccc2C1=O ?
inactive

Just curious, what result did COc1ccc(-c2cc(-c3ccccc3)nc(N)n2)c(O)c1 get here?
inactive

Which outcome was entered for the compound COc1ccc(CC2C3=C(CCCC3)CCN2C)cc1 (stereo unspecified) in this test?
inactive

Call for entry CC(=O)OCC1OC(OC2CC3C(C)(C)C(=O)CC[C@]3(C)C3CC[C@]45C[C@]4(CCC5[C@@H](C)CC(O)C(O)C(C)(C)O)[C@]23C)C(O)C(O)C1O (stereo partly specified) :
inactive

What call does the record list for C=CCN1C(=O)CC2[C@@H]3CCc4cc(O)ccc4C3CC[C@]2(C)C1=O (stereo partly specified) ?
inactive

For CC(C)Cc1ccc(C(C)/C=C2\CCC(CN3CCOCC3)C2=O)cc1 (stereo unspecified) , what call appears in the results of this test?
inactive

Called result for O=C(c1ccccc1)c1nc2ccc(Cl)cc2cc1C(Br)Br
active

Dear all, I need the recorded test outcome for C(CCc1nnc2c(n1)CCCC2)Cc1nnc2c(n1)CCCC2 , thank you.
inactive
